Subject Of Test: T1, HLA-A*11:01 (MHC-I molecules on the surfaces of T2 cells) (human)
T1 construct: It only names the antibody against 'the corresponding HLA typing (HLA-A*11:01)'; also called HLA molecules
Protocol Notes: T2 cell MHC-I stabilisation assay, flow cytometry with FITC anti-HLA-A*11:01 antibody
Metric: FI (fluorescence index)
Give the value as a plain number.

// worked examples, FI (fluorescence index) included
binder="VTVGAAGVGK (Synthesized mutant KRAS neoantigen peptide; also called core polypeptide) [VTVGAAGVGK polypeptide (KRAS; SEQ ID NO: 5)]" metric="FI (fluorescence index)" reading=2.12
binder="VTVGAVGVGK (Synthesized mutant KRAS neoantigen peptide; also called core polypeptide) [VTVGAVGVGK polypeptide (KRAS; SEQ ID NO: 4)]" metric="FI (fluorescence index)" reading=2.02
binder="VTGAVGVGK (Synthesized mutant KRAS neoantigen peptide, printed as a 9-mer; also called core polypeptide) [VTGAVGVGK polypeptide (KRAS; SEQ ID NO: 3)]" metric="FI (fluorescence index)" reading=2.37
binder="VSVGAVGVGK (Synthesized mutant KRAS neoantigen peptide; also called core polypeptide) [VSVGAVGVGK polypeptide (KRAS; SEQ ID NO: 6)]" metric="FI (fluorescence index)" reading=2.42

// below: FI (fluorescence index) requested for another binder
stdin: Recorded FI (fluorescence index) of VTVGADGVGK (Synthesized mutant KRAS neoantigen peptide; also called core polypeptide) [VTVGADGVGK polypeptide (KRAS; SEQ ID NO: 1)] , please.
stdout: 2.83
